Value source: PubChem BioAssay (NCI)

Tested on: SK-OV-3 ovarian
protocol.notes: NCI-60 one-dose screen, 48 h
measurement.context: 10 µM unless noted
About 83,000 compounds went through this panel and 20% of them were active in at least one assay; those are over-represented in the sample as a whole. The source made the active and inactive calls. How the source made its calls: active means growth percent below 10; inactive means the rest.
Please reply with one of these outcomes: Y for active, N for inactive

Problem: // param item: COc1cc(C2CC(c3ccc(S(=O)(=O)NCCNc4nc(Nc5ccc(F)cc5)nc(N(C)C)n4)cc3)=Nc3c(N)nc(N)nc3N2)cc(OC)c1OC (stereo not given) ; yields the recorded call
Result: N

Problem: // param item: CN(C)CCOc1ccc(C(=O)C2[C@H](c3ccc(Cl)cc3)[C@@H](c3ccccc3)NC23C(=O)Nc2ccc(Br)cc23)cc1 (stereo not given in full) ; yields the recorded call
Result: N

Problem: // param item: C[C@H](Nc1nc(NCCc2ccccc2)nc2ccccc12)c1ccccc1 ; yields the recorded call
Result: Y

Problem: // param item: COc1ccc(C(SCCNCc2cc(N(C)C)ccn2)(c2ccccc2)c2ccccc2)cc1 ; yields the recorded call
Result: Y

Problem: // param item: C=C1CCC2C3(C)COC(c4ccccc4)OC3CCC2(C)C1CC(NCc1ccccc1)C1=CCOC1=O (stereo not given) ; yields the recorded call
Result: N

* * *

Tested on: U251 CNS
protocol.notes: NCI-60 one-dose screen, 48 h (100 = growth as untreated, 0 = no growth, -100 = all killed)
measurement.context: 10 µM unless noted
About 83,000 compounds went through this panel and 20% of them were active in at least one assay; those are over-represented in the sample as a whole.
reported.property: growth (%)
Answer in %, number only, no unit symbol.

Problem: Quick check: growth on U251 CNS, item CC(=O)Nc1ccc(-c2cn(-c3cccc(C(=O)Nc4ccc(N5CCN(C)CC5)cc4)c3)nn2)cn1 ?
Result: 50.8

Problem: Quick check: growth on U251 CNS, item CN(C)c1nc(NCCNS(=O)(=O)c2ccc(C3=Nc4c(N)nc(N)nc4NC(c4ccc(F)cc4)C3)cc2)nc(Nc2ccc(F)cc2)n1 (centres undefined) ?
Result: 31.6

Problem: Quick check: growth on U251 CNS, item CC12CC[C@@H]3[C@]4(C)COC(c5cn[nH]c5-c5ccc(Br)cc5)O[C@@H]4CC[C@@]3(C)[C@@H]1CC(C1=CCOC1=O)O2 (some centres undefined) ?
Result: 53

Problem: Quick check: growth on U251 CNS, item COc1ccc(C2=NN(c3ccccc3)C(c3ccc(OCc4ccccc4)c(OC)c3)C2)cc1OC (centres undefined) ?
Result: 108

* * *

Test system: MCF7 breast
protocol.notes: NCI-60 one-dose screen, 48 h (100 = growth as untreated, 0 = no growth, -100 = all killed)
measurement.context: 10 µM unless noted
Compounds without any hit were thinned out: in the full panel of roughly 83,000, 20% have a hit.
Each entry belongs to exactly one class, chosen by where its growth falls: bin 0: < 20%; bin 1: ≥ 20% and < 40%; bin 2: ≥ 40%

Problem: Exam item: assign CN1CCN(c2ccc(C(=O)/C=C/c3cc(C(F)(F)F)cc(C(F)(F)F)c3)cc2)CC1 to the correct category.
Result: bin 0

* * *

Let's look at some compounds and their measured growth.
Tested on: RXF 393 renal
protocol.notes: NCI-60 one-dose screen, 48 h (100 = growth as untreated, 0 = no growth, -100 = all killed)
measurement.context: 10 µM unless noted
This is part of a sample that, as a whole, favours compounds with a hit. Of some 83,000 tested, about 20% had one in any assay.
Answer in %, number only, no unit symbol.

Guide cases for growth, answers given:
compound: CCCCSc1nc(Nc2ccc(S(N)(=O)=O)cc2)c(C#N)c(-c2cc(OC)c(OC)c(OC)c2)n1
growth, %: 32.8
//
compound: N#Cc1c(-c2cccnc2)cc(-c2ccc3ccccc3c2)[nH]c1=O
growth, %: 50.6
//
compound: Cc1ccc(NCC(=O)Cn2cc(COc3ccc(C=Nc4cnc5ccccc5c4)cc3)nn2)cc1
growth, %: 125
//
compound: CN1CCN(c2ccc3c(c2)nc(NNC(=O)c2cnccn2)c2cccn23)CC1
growth, %: -65.1
//
compound: COc1ccc(N2N=C(c3ccc4c(c3)OCO4)CC2c2cccc(NC(=O)CCCNS(=O)(=O)c3ccc(F)cc3)c2)cc1 (stereo unspecified)
growth, %: 66.9
//
compound: Cc1ccc(C(=O)C(c2c[nH]c3ccccc23)c2c[nH]c3ccccc23)cc1
growth, %: 34

From here, focus on the item given below.
Problem: Given the entry CCCCCCCCOc1cccc(S(=O)(=O)Nc2ccc(C)cc2C(=O)O)c1 , report its measured growth.
Result: 107
